assay: isobaric coefficient of expansion; details: 328.15 K; 10000 kPa; Liquid; Microcalorimeter
measured-quantity: isobaric coefficient of expansion

{"molecule": "CCCCCC[n+]1ccn(C)c1.O=S(=O)([N-]S(=O)(=O)C(F)(F)F)C(F)(F)F", "isobaric coefficient of expansion": "0.000639 1/K"}
{"molecule": "CCCCCCn1cc[n+](C)c1.F[B-](F)(F)F [1-hexyl-3-methylimidazolium tetrafluoroborate]", "isobaric coefficient of expansion": "0.000587 1/K"}
{"molecule": "CCn1cc[n+](C)c1.O=S(=O)([N-]S(=O)(=O)C(F)(F)F)C(F)(F)F", "isobaric coefficient of expansion": "0.000635 1/K"}
{"molecule": "CCn1cc[n+](C)c1.F[B-](F)(F)F [1-ethyl-3-methylimidazolium tetrafluoroborate]", "isobaric coefficient of expansion": "0.000578 1/K"}
{"molecule": "CCCC[n+]1cccc(C)c1.F[B-](F)(F)F [1-butyl-3-methylpyridinium tetrafluoroborate]", "isobaric coefficient of expansion": "0.00057 1/K"}

Now let's try a different one.
Ask | Using the record for CCCCCCCC[n+]1ccn(C)c1.F[B-](F)(F)F [1-methyl-3-octylimidazolium tetrafluoroborate] , report its isobaric coefficient of expansion.
Reply | 0.000587 1/K
